# Test system: K4 kissing-loop RNA reporter;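 further: bound reporter read as fluorescence of individual clusters on recovered sequencing chips by microscopy, with normalized cluster intensities fitted with a binding model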
# assay explanation: apparent KD of K4 kissing-loop reporter; higher = weaker reporter binding
# cond: Eterna round: R107; input ligand: theophylline 20 uM
reported metric: apparent KD of K4 kissing-loop reporter (nM)
Answer in nM, number only, no unit symbol.

AGGAUAUAGUGAUGUUAUAUAAGAAGAAAACGAGGACCGGUACGGCCGCCACUCGAAGCGGCUACUAAGAGGGAAAGAAGAGGAA [ExTryptoA.A] | 294
AAUAAGGUCGCCGAUACCAGCGCAGGCAGAGCAAAGCUCUGCCUAGUAGUGAUGUUACUGCGCCCUUGGCAGCGGUGGCACGACC [Omei KL Theo B SS C v4] | 397
CUGGGUUGACGAAAAGUCAACAAAAGAGAAGGAGCGCACGAAAGUGCAGGUAGGUCGCUCAGUCCAGUGAUGUUGGAUCAUCCAG [#SwitchBubble 11 #K4Late] | 454
AGACUUCACCGAAGGAGCGACGUGGUCUAGUGAUGUUAGACACGAGAGAAAUCUCGUAUACGUCAGGUAGGUCGCGGUGAAGUCA [Omei KL Arginine B SS C v9] | 117

Exercise: Give its apparent KD of K4 kissing-loop reporter value. Item: GAUUCAGUGAUGUUGGAAGGCGAGCGGGAUACCAGCCAAGACUCAGGCCCUUGGCAGCCCACAUAUCCCAGGUAGAUAGUCGCUC [Same State - Theophylline A (Freestyle 11)]
Key: 293

Exercise: State the recorded apparent KD of K4 kissing-loop reporter for this entry: CUGUUUGGUUGAGAGGUUGGGCGGAAUGAUACCAGUAUAUAAGAAUACCCUUGGCAGCAUAAGAAAGAUAUAGUGAUGUUGUAUA [SSTheophA.K]
Key: 536
